concentration by entry:
tested on: Mus musculus; assay: Plasma concentration in mouse at 10 umol/kg, ip; format: ADME, organism-based; details: in vivo

- Compound: "COC(=O)N(CCO[C@H]1CNC[C@H]1Cc1cc(C)cc(N)n1)CCc1cccc(F)c1 (racemic)"
  Target or system: "Mus musculus"
  concentration (nM): 1210
- Compound: "Cc1cc(N)nc(C[C@@H]2CNC[C@@H]2NCCNCCc2cccc(F)c2)c1"
  Target or system: "Mus musculus"
  concentration (nM): 1600
- Compound: "Cc1cc(N)nc(C[C@@H]2CNC[C@@H]2OCCN(CCc2cccc(F)c2)C(=O)OCc2ccccc2)c1 (racemic)"
  Target or system: "Mus musculus"
  concentration (nM): 490
- Compound: "CC(=O)N(CCO[C@H]1CNC[C@H]1Cc1cc(C)cc(N)n1)CCc1cccc(F)c1 (racemic)"
  Target or system: "Mus musculus"
  concentration (nM): 4600
- Compound: "Cc1cc(N)nc(C[C@@H]2CNC[C@@H]2OCCNCCc2cccc(F)c2)c1 (racemic)"
  Target or system: "Mus musculus"
  concentration (nM): 1600

// data source = ChEMBL document CHEMBL1152641
